All figures here come from ChEMBL document CHEMBL4033799.

- Protocol summary: Half life in human vitreous humor at 1 uM measured up to 24 hrs by LC-MS/MS analysis
- Assay type: ADME, tissue-based
*1 amine or outer side, *2 acyl side, *3 side chain or, on linkers, in order; H or OH if unused. Where a SMILES comes first, the peptide text is derived from it. Bridges are numbered along the chain shown (N, C = ends). TBMB = c1c(C[*:1])cc(C[*:3])cc1C[*:2]
Assay readout: half-life at 1 µM

CC(=O)N[C@H]1CSCc2cc3cc(c2)CSC[C@H](NC(=O)[C@H](CCCNC(=N)N)NC(=O)[C@H](C)NC(=O)[C@@H]2CCCN2C(=O)[C@H](Cc2c[nH]c4ccccc24)NC(=O)[C@H](CO)NC1=O)C(=O)N[C@@H](CC(C)C)C(=O)N[C@@H](Cc1cnc[nH]1)C(=O)N[C@@H](CCC(N)=O)C(=O)N[C@@H](CC(=O)O)C(=O)N[C@@H](CC(C)C)C(=O)N[C@H](C(=O)O)CSC3 (Ac-CSWPARCLHQDLC-OH; linker 1-7-13 via TBMB) :: > 1440 min

Consider now this further molecule.
Task item: Look at this molecule and give its reported half-life at 1 µM. CC(=O)N[C@H]1CSCc2cc3cc(c2)CSC[C@H](NC(=O)[C@H](CCCCNC(=N)N)NC(=O)[C@H](Cc2ccc(O)cc2)NC(=O)[C@@H]2CCN2C(=O)[C@H](Cc2ccccc2)NC(=O)[C@H](CO)NC1=O)C(=O)N[C@@H](C)CN[C@@H](Cc1cnc[nH]1)C(=O)N[C@@H](CCC(N)=O)C(=O)N[C@@H](CC(=O)O)C(=O)N[C@@H](CC(C)C)C(=O)N[C@H](C(=O)O)CSC3
Reply: > 1440 min

###

- Protocol summary: Half life in mouse plasma at 4 uM measured up to 24 hrs by LC-MS/MS analysis
- Assay type: ADME, cell-free
*1 amine or outer side, *2 acyl side, *3 side chain or, on linkers, in order; H or OH if unused. Where a SMILES comes first, the peptide text is derived from it. Bridges are numbered along the chain shown (N, C = ends). TBMB = c1c(C[*:1])cc(C[*:3])cc1C[*:2]
Assay readout: half-life at 4 µM (h)
Quick reminder: number only, in h, skip the unit.

Task item: Look at this compound and give its reported half-life at 4 µM. CC(=O)N[C@H]1CSCc2cc3cc(c2)CSC[C@H](NC(=O)[C@H](CCCNC(=N)N)NC(=O)[C@H](C)NC(=O)[C@@H]2CCCN2C(=O)[C@H](Cc2c[nH]c4ccccc24)NC(=O)[C@H](CO)NC1=O)C(=O)N[C@@H](CC(C)C)C(=O)N[C@@H](Cc1cnc[nH]1)C(=O)N[C@@H](CCC(N)=O)C(=O)N[C@@H](CC(=O)O)C(=O)N[C@@H](CC(C)C)C(=O)N[C@H](C(=O)O)CSC3 (Ac-CSWPARCLHQDLC-OH; linker 1-7-13 via TBMB)
Reply: 1.5

###

Some molecules, each annotated with its measured Ki.
- Target entity: Plasma kallikrein (Homo sapiens, UniProt P03952)
- Sequence (P03952 20-390 limits assumed): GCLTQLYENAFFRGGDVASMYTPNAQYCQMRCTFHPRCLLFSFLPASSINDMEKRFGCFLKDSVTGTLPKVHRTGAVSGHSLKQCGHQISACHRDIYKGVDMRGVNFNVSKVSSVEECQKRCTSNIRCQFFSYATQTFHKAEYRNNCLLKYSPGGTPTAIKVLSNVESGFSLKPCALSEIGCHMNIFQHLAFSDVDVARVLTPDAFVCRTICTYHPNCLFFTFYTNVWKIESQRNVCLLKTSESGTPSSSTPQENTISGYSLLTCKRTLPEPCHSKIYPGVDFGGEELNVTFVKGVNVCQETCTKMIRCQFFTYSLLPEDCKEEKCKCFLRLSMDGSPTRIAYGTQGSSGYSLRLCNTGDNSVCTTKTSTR
- Sequence (P03952 391-638 limits assumed): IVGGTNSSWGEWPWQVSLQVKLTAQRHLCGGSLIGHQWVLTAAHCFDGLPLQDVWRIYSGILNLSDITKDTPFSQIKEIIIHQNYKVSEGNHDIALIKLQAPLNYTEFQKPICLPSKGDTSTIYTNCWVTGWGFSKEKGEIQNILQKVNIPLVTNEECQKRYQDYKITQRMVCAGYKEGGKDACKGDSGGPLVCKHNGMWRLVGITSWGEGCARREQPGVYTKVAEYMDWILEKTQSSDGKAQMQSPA
- Protocol summary: Inhibition of human plasma kallikrein using fluorogenic H-Pro-Phe-Arg-AMC peptide as substrate preincubated for 15 mins followed by substrate addition measured by fluorescence-based assay
- Recorded conditions: read-out: Ki(app)
*1 amine or outer side, *2 acyl side, *3 side chain or, on linkers, in order; H or OH if unused. Where a SMILES comes first, the peptide text is derived from it. Bridges are numbered along the chain shown (N, C = ends). TBMB = c1c(C[*:1])cc(C[*:3])cc1C[*:2]
Quick reminder: number only, in nM, skip the unit.

CC(=O)N[C@H]1CSCc2cc3cc(c2)CSC[C@H](NC(=O)[C@H](CCCNC(=N)N)NC(=O)[C@H](Cc2ccc(O)cc2)NC(=O)[C@@H]2CCCN2C(=O)[C@H](Cc2ccccc2)NC(=O)[C@H](CO)NC1=O)C(=O)N[C@@H](C)CN[C@@H](Cc1cnc[nH]1)C(=O)N[C@@H](CCC(N)=O)C(=O)N[C@@H](CC(=O)O)C(=O)N[C@@H](CC(C)C)C(=O)N[C@H](C(=O)O)CSC3 :: 1.3

Task item: For Plasma kallikrein (Homo sapiens, UniProt P03952), provide Ki of CC[C@H](C)[C@@H]1NC(=O)[C@H](CC(=O)O)NC(=O)[C@@H]2CCCN2C(=O)[C@H](Cc2ccc(O)cc2)NC(=O)[C@H](Cc2ccc(O)cc2)NC(=O)[C@H](C(C)C)NC(=O)[C@@H]2CSCc3cc(cc(c3)CSC[C@@H](C(=O)N[C@@H](C)C(=O)O)NC1=O)CSC[C@H](NC(=O)[C@H](C)N)C(=O)N[C@@H](CC(N)=O)C(=O)N[C@@H](CC(N)=O)C(=O)N[C@@H](Cc1ccccc1)C(=O)N1CCC[C@H]1C(=O)N[C@@H](Cc1ccccc1)C(=O)N[C@@H](CCCNC(=N)N)C(=O)N2 (H-ACNNFPFRCVYYPDICA-OH; linker 2-9-16 via TBMB) please.
Reply: 0.44

###

Some molecules, each annotated with its measured pKi.
- Protocol summary: Inhibition of rabbit plasma kallikrein using fluorogenic H-Pro-Phe-Arg-AMC peptide as substrate preincubated for 15 mins followed by substrate addition measured by fluorescence-based assay
- Set-up: species or system Oryctolagus cuniculus
- Recorded conditions: read-out: Ki(app)
*1 amine or outer side, *2 acyl side, *3 side chain or, on linkers, in order; H or OH if unused. Where a SMILES comes first, the peptide text is derived from it. Bridges are numbered along the chain shown (N, C = ends). TBMB = c1c(C[*:1])cc(C[*:3])cc1C[*:2]
On this scale, pKi is minus log10 of a concentration expressed in M (mol/L).

Reference set (2 entries):
CC[C@H](C)[C@@H]1NC(=O)[C@H](CC(=O)O)NC(=O)[C@@H]2CCCN2C(=O)[C@H](Cc2ccc(O)cc2)NC(=O)[C@H](Cc2ccc(O)cc2)NC(=O)[C@H](C(C)C)NC(=O)[C@@H]2CSCc3cc(cc(c3)CSC[C@@H](C(=O)N[C@@H](C)C(=O)N(C)CC(=O)N(C)CC(=O)N(C)CC(=O)N[C@H](CCCNC(=N)N)C(=O)N[C@H](CCCNC(=N)N)C(=O)O)NC1=O)CSC[C@H](NC(C)=O)C(=O)N[C@@H](CO)C(=O)N[C@@H](Cc1ccccc1)C(=O)N1CCC1C(=O)N[C@@H](Cc1ccc(O)cc1)C(=O)N[C@@H](CCCCNC(=N)N)C(=O)N2 (stereo partly drawn) :: 5.58
CC(=O)N[C@H]1CSCc2cc3cc(c2)CSC[C@H](NC(=O)[C@H](CCCNC(=N)N)NC(=O)[C@H](Cc2ccc(O)cc2)NC(=O)[C@@H]2CCCN2C(=O)[C@H](Cc2ccccc2)NC(=O)[C@H](CO)NC1=O)C(=O)N[C@@H](CC(C)C)C(=O)N[C@@H](Cc1cnc[nH]1)C(=O)N[C@@H](CCC(N)=O)C(=O)N[C@@H](CC(=O)O)C(=O)N[C@@H](CC(C)C)C(=O)N[C@H](C(=O)O)CSC3 (Ac-CSFPYRCLHQDLC-OH; linker 1-7-13 via TBMB) :: 7.08

Task item: Look at this molecule and give its reported pKi. CC(=O)N[C@H]1CSCc2cc3cc(c2)CSC[C@H](NC(=O)[C@H](CCCNC(=N)N)NC(=O)[C@H](C)NC(=O)[C@@H]2CCCN2C(=O)[C@H](Cc2c[nH]c4ccccc24)NC(=O)[C@H](CO)NC1=O)C(=O)N[C@@H](CC(C)C)C(=O)N[C@@H](Cc1cnc[nH]1)C(=O)N[C@@H](CCC(N)=O)C(=O)N[C@@H](CC(=O)O)C(=O)N[C@@H](CC(C)C)C(=O)N[C@H](C(=O)O)CSC3 (Ac-CSWPARCLHQDLC-OH; linker 1-7-13 via TBMB)
Reply: 8.00

###

- Target entity: UniProtKB P03951
- Sequence (P03951 19-387 limits assumed): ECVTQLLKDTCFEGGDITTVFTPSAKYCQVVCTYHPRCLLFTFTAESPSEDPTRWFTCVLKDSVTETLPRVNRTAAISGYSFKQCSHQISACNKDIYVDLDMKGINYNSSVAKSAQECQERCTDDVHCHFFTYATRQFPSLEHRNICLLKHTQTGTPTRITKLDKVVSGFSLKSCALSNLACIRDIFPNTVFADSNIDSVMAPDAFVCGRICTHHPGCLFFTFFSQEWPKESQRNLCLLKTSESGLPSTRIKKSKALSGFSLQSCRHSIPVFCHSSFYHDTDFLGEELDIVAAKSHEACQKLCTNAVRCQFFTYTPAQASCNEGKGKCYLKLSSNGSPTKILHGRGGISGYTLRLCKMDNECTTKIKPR
- Sequence (P03951 388-625 limits assumed): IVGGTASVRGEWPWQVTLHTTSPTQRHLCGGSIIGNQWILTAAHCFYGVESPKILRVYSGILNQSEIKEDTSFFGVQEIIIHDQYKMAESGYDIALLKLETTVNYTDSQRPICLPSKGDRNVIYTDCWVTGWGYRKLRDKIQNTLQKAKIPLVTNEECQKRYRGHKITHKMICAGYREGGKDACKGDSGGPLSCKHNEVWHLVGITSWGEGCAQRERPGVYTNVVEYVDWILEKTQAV
- Protocol summary: Inhibition of factor 11a (unknown origin)
Assay readout: pKi
On this scale, pKi is minus log10 of a concentration expressed in M (mol/L).

Task item: For UniProtKB P03951, provide pKi of Cc1cc(Oc2nc(Oc3cccc(C(=N)N)c3)c(F)c(NC(C)CCc3ccccc3)c2F)c(C(=O)O)cc1N(C)C (stereo unspecified) please.
Reply: 6.00

###

- Protocol summary: Half life in human plasma at 4 uM measured up to 24 hrs by LC-MS/MS analysis
- Type: ADME, cell-free
*1 amine or outer side, *2 acyl side, *3 side chain or, on linkers, in order; H or OH if unused. Where a SMILES comes first, the peptide text is derived from it. Bridges are numbered along the chain shown (N, C = ends). TBMB = c1c(C[*:1])cc(C[*:3])cc1C[*:2]
Assay readout: half-life at 4 µM (h)
Quick reminder: number only, in h, skip the unit.

Task item: Look at this molecule and give its reported half-life at 4 µM. CC(=O)N[C@H]1CSCc2cc3cc(c2)CSC[C@H](NC(=O)[C@H](CCCNC(=N)N)NC(=O)[C@H](C)NC(=O)[C@@H]2CCCN2C(=O)[C@H](Cc2c[nH]c4ccccc24)NC(=O)[C@H](CO)NC1=O)C(=O)N[C@@H](CC(C)C)C(=O)N[C@@H](Cc1cnc[nH]1)C(=O)N[C@@H](CCC(N)=O)C(=O)N[C@@H](CC(=O)O)C(=O)N[C@@H](CC(C)C)C(=O)N[C@H](C(=O)O)CSC3 (Ac-CSWPARCLHQDLC-OH; linker 1-7-13 via TBMB)
Reply: 7
